Record set of MIC for target or system Staphylococcus aureus ATCC 49951 (DRCC 213, Smith S).
A number alone suffices; assume µg/mL.

1) COC(=S)NCc1cn(-c2cc(F)c(-n3ccc(C#N)c3)c(F)c2)nn1    0.5
2) COC(=S)NCc1cn(-c2cc(F)c(-n3ccnc3)c(F)c2)nn1    1
3) COC(=S)NCc1cn(-c2ccc(-n3cnc(CO)c3)c(F)c2)nn1    1

Let us examine a further case.
**Query** Provide MIC, system Staphylococcus aureus ATCC 49951 (DRCC 213, Smith S), entry `COC(=S)NCc1cn(-c2ccc(-n3cncn3)c(F)c2)nn1`
**Result** 16

----------
Record set of MIC for target or system Mycobacterium MTCC006.
A number alone suffices; assume mg/L.

1) COC(=S)NCc1cn(-c2cc(F)c(-n3ccnc3)c(F)c2)nn1    4
2) COC(=S)NCc1cn(-c2cc(F)c(-n3ccc(C#N)c3)c(F)c2)nn1    32
3) COC(=S)NCc1cn(-c2ccc(-n3cnc(CO)c3)c(F)c2)nn1    16

**Query** Provide MIC, system Mycobacterium MTCC006, entry `COC(=S)NCc1cn(-c2ccc(-n3cncn3)c(F)c2)nn1`
**Result** 16

----------
measured attribute: melting point (°C)
A number alone suffices; assume °C.

Reference set (5 entries):
1) CC(=O)NCc1cn(-c2ccc(-n3cncn3)c(F)c2)nn1    223
2) COC(=S)NCc1cn(-c2ccc(-n3cncn3)c(F)c2)nn1    179
3) COC(=S)NCc1cn(-c2ccc(-n3cnc(CO)c3)c(F)c2)nn1    179
4) COC(=S)NCc1cn(-c2ccc(-n3cccc3)cc2)nn1    150
5) CC(=S)NCc1cn(-c2ccc(-n3ccnc3)c(F)c2)nn1    185

Let us examine a further case.
**Query** Name the recorded melting point of the item `COC(=S)NCc1cn(-c2cc(F)c(-n3ccnc3)c(F)c2)nn1` in your answer.
**Result** 180

----------
Reported values of melting point for individual entries

Reference set (2 entries):
1. CC(=O)NCc1cn(-c2ccc(-n3cccc3)c(F)c2)nn1 [Example 22]    210 to 215 °C
2. COC(=S)NCc1cn(-c2ccc(-n3ccc(C=O)c3)cc2)nn1 [Example 2]    160 to 162 °C

Let us examine a further case.
**Query** Name the recorded melting point of the item COC(=S)NCc1cn(-c2ccc(-n3ccnc3)c(F)c2)nn1 [Example 10] in your answer.
**Result** 165 to 167 °C
